system: ES6; assay: cells; assay type: functional, cell-based, Homo sapiens; details: Homo sapiens, ES6;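 further: growth inhibition of human ES6 cells, read out with a cell viability assay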
Description: SANGER: Inhibition of human ES6 cell growth in a cell viability assay.
Where a name gives a salt, the structure may show the parent alone.
Listed below: IC50 values for each entry.
Dear colleague, please return just the value in µM, with no unit written.

Consider the worked cases shown below.
OCCCNc1cc(-c2ccnc(Nc3cccc(Cl)c3)n2)ccn1 ... 0.00878
COC1=CC(c2cc3ccccc3[nH]2)=N/C1=C\c1[nH]c(C)cc1C [OBATOCLAX MESYLATE] ... 0.144
CC(C)c1ccccc1Cc1cc(C(=O)Nc2ccc(S(=O)(=O)c3ccccc3C(C)(C)C)cc2)c(O)c(O)c1O ... 0.373

Next compound, IC50 to be filled in.
Specify measured IC50 for COc1cc(-c2nn([C@H]3CC[C@H](N4CCN(C(C)=O)CC4)CC3)c3ncnc(N)c23)ccc1NC(=O)c1cc2ccccc2n1C .
1.96

---

test system: QIMR-WIL; assay: cells; assay type: functional, cell-based, Homo sapiens; settings: Homo sapiens, QIMR-WIL
Description: SANGER: Inhibition of human QIMR-WIL cell growth in a cell viability assay.
pIC50: −log10 of the molar value.
readout.type: pIC50

Field: example entries. Status: answers known.
N[C@@H](CSC(c1ccccc1)(c1ccccc1)c1ccccc1)C(=O)O ... < 5.29
C=C(c1ccc(C(=O)O)cc1)c1cc2c(cc1C)C(C)(C)CCC2(C)C ... < 5.10
CCC/C=C/C=C/C(=O)O[C@H]1/C(=C/C(=O)OC)C[C@H]2C[C@H]([C@@H](C)O)OC(=O)C[C@H](O)C[C@@H]3C[C@H](OC(C)=O)C(C)(C)[C@](O)(C[C@@H]4C/C(=C/C(=O)OC)C[C@H](/C=C/C(C)(C)[C@]1(O)O2)O4)O3 ... < 8.10
Cc1cn(-c2cc(NC(=O)c3ccc(C)c(Nc4nccc(-c5cccnc5)n4)c3)cc(C(F)(F)F)c2)cn1 ... < 5.70
CN(C)C(=N)NC(=N)N ... < 1.70
COc1cc2ncn(-c3cc(OCc4ccccc4C(F)(F)F)c(C(N)=O)s3)c2cc1OC [GW843682X] ... 7.37

For the molecule COc1cc2c(Nc3ccc(NC(=O)c4ccccc4)cc3)ncnc2cc1OCCCN1CCOCC1 , report pIC50.
5.69

Assign pIC50 to the following record: OCCCNc1cc(-c2ccnc(Nc3cccc(Cl)c3)n2)ccn1
7.31

---

test system: HH; experiment: cells; format: functional, cell-based, Homo sapiens; details: Homo sapiens, HH
Description: SANGER: Inhibition of human HH cell growth in a cell viability assay.
readout.type: IC50 (µM)
Field: numeric (µM). Do not append units.

Below: 3 compounds and their reported IC50.
N#Cc1c(O)c2c(-c3ccc(-c4ccccc4O)cc3)csc2[nH]c1=O ... 0.458
CN(C)C(=N)NC(=N)N ... 9630
COc1cc2ncn(-c3cc(OCc4ccccc4C(F)(F)F)c(C(N)=O)s3)c2cc1OC [GW843682X] ... 0.0988

Next up:
Determine its reported IC50: CO[C@H]1C[C@@H]2CC[C@@H](C)[C@@](O)(O2)C(=O)C(=O)N2CCCC[C@H]2C(=O)O[C@H]([C@H](C)C[C@@H]2CC[C@@H](OC(=O)C(C)(CO)CO)[C@H](OC)C2)CC(=O)[C@H](C)/C=C(\C)[C@@H](O)[C@@H](OC)C(=O)[C@H](C)C[C@H](C)/C=C/C=C/C=C/1C
0.000664

---

Measured pIC50 accompanies every entry in the list below.
tested on: ATN-1; experiment: cells; assay type: functional, cell-based, Homo sapiens; details: Homo sapiens, ATN-1
Description: SANGER: Inhibition of human ATN-1 cell growth in a cell viability assay.
pIC50: −log10 of the molar value.

Guide cases for pIC50, answers given:
Nc1ccn([C@@H]2O[C@H](CO)[C@@H](O)C2(F)F)c(=O)n1 [GEMCITABINE] ... > 8.40
OCCCNc1cc(-c2ccnc(Nc3cccc(Cl)c3)n2)ccn1 ... 7.27
CO[C@H]1C[C@@H]2CC[C@@H](C)[C@@](O)(O2)C(=O)C(=O)N2CCCC[C@H]2C(=O)O[C@H]([C@H](C)C[C@@H]2CC[C@@H](OC(=O)C(C)(CO)CO)[C@H](OC)C2)CC(=O)[C@H](C)/C=C(\C)[C@@H](O)[C@@H](OC)C(=O)[C@H](C)C[C@H](C)/C=C/C=C/C=C/1C [TEMSIROLIMUS] ... < 6.70

Tell me measured pIC50 for N[C@@H](CSC(c1ccccc1)(c1ccccc1)c1ccccc1)C(=O)O [S-TRITYL-L-CYSTEINE] please.
6.07

Report pIC50 for Cc1ccc(-c2c(C(=O)CCl)n(CCCO)c3ncnc(N)c23)cc1
< 5.40

// Input: COc1cc(-c2nn([C@H]3CC[C@H](N4CCN(C(C)=O)CC4)CC3)c3ncnc(N)c23)ccc1NC(=O)c1cc2ccccc2n1C . Output its pIC50 only.
< 5.29

Hello, please tell me recorded pIC50 for this one: Cc1cn(-c2cc(NC(=O)c3ccc(C)c(Nc4nccc(-c5cccnc5)n4)c3)cc(C(F)(F)F)c2)cn1 [NILOTINIB]
< 5.70

---

test system: PSN1; test: cells; assay type: functional, cell-based, Homo sapiens; details: Homo sapiens, PSN1;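 further: suppression of growth of human PSN1 cells, read out by a cell viability assay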
Description: SANGER: Inhibition of human PSN1 cell growth in a cell viability assay.
Known pIC50 of a selection of compounds
Here pIC50 is given on a logarithmic scale as minus log10 of the concentration in mol/L.

COc1cc2ncn(-c3cc(OCc4ccccc4C(F)(F)F)c(C(N)=O)s3)c2cc1OC [GW843682X] ... 8.23

Supply reported pIC50 belonging to this compound: N[C@@H](CSC(c1ccccc1)(c1ccccc1)c1ccccc1)C(=O)O
5.83

Quick one: give measured pIC50 for CC(C)c1ccccc1Cc1cc(C(=O)Nc2ccc(S(=O)(=O)c3ccccc3C(C)(C)C)cc2)c(O)c(O)c1O
6.78

Provide measured pIC50 value, entry: O=C(O)c1ccc(-c2c[nH]c3ncc(-c4ccccc4)cc23)cc1C1CCCC1
5.66

---

system: LAN-6; assay: cells; assay type: functional, cell-based, Homo sapiens; conditions: Homo sapiens, LAN-6;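 further: growth inhibition of LAN-6 cells, determined with a cell viability assay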
Description: SANGER: Inhibition of human LAN-6 cell growth in a cell viability assay.
Counter-ions that a name gives are not always drawn.
readout.type: IC50

Previously resolved entries follow.
COC1=CC(c2cc3ccccc3[nH]2)=N/C1=C\c1[nH]c(C)cc1C [OBATOCLAX MESYLATE] ... 1900 nM
Nc1cccc2c1CN(C1CCC(=O)NC1=O)C2=O (stereo not given) [LENALIDOMIDE] ... > 5000 nM
Cc1ccc(-c2c(C(=O)CCl)n(CCCO)c3ncnc(N)c23)cc1 ... > 4000 nM
CC[C@H](CO)Nc1nc(NCc2ccccc2)c2ncn(C(C)C)c2n1 ... > 16000 nM

--- query ---
Please give measured IC50 of the following entry: CC(=O)O[C@H]1C(=O)[C@@]2(C)[C@H]([C@H](OC(=O)c3ccccc3)[C@]3(O)C[C@H](OC(=O)[C@H](O)[C@@H](NC(=O)c4ccccc4)c4ccccc4)C(C)=C1C3(C)C)[C@]1(OC(C)=O)CO[C@@H]1C[C@@H]2O
> 102 nM

---

tested on: EOL1; assay: cells; type: functional, cell-based, Homo sapiens; settings: eol1
Description: SANGER: Inhibition of human EoL-1-cell cell growth in a cell viability assay.
Measured pIC50 of individual entries
On this scale, pIC50 is minus log10 of a concentration expressed in M (mol/L).

BLEOMYCIN ... 5.62

Next:
Recall and state the measured pIC50 for CISPLATIN .
4.42

---

Entries and their IC50 values follow.
tested on: COLO-668; assay: cells; assay type: functional, cell-based, Homo sapiens; settings: colo-668
Description: SANGER: Inhibition of human COLO-668 cell growth in a cell viability assay.
Include the unit right after the number.

Item BLEOMYCIN : provide IC50
2.18e-05 µM

Please indicate IC50 recorded for CISPLATIN
103 µM

---

test system: DV-90; assay: cells; type: functional, cell-based, Homo sapiens; conditions: dv-90;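 further: Read-out is a viability assay, with IC50 reflecting the drop in DV-90 cell growth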
Description: SANGER: Inhibition of human DV-90 cell growth in a cell viability assay.
readout.type: IC50
Express your answer as a number followed by its unit.

State recorded IC50 with DV-90, entry BLEOMYCIN , no comment.
182 µM

---

tested on: CP66-MEL; test: cells; format: functional, cell-based, Homo sapiens; conditions: cp66-mel;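 further: growth inhibition of CP66-MEL cells determined in a cell viability assay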
Description: SANGER: Inhibition of human CP66-MEL cell growth in a cell viability assay.
readout.type: IC50 (µM)
Answer with a number only, understood to be in µM.

Using the record for CISPLATIN , state its measured IC50.
32

---

tested on: CAMA-1; experiment: cells; assay type: functional, cell-based, Homo sapiens; settings: cama-1
Description: SANGER: Inhibition of human CAMA-1 cell growth in a cell viability assay.
readout.type: pIC50
For clarity, pIC50 is expressed as the negative log10 of concentration in mol/L.

Find the measured pIC50 of CISPLATIN and report it.
3.93

---

Attribute: IC50
system: BHY; experiment: cells; assay type: functional, cell-based, Homo sapiens; conditions: Homo sapiens, BHY;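 further: cell growth inhibition read out by a viability assay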
Description: SANGER: Inhibition of human BHY cell growth in a cell viability assay.

These recorded examples may help you get a feel for the data.
Cc1cn(-c2cc(NC(=O)c3ccc(C)c(Nc4nccc(-c5cccnc5)n4)c3)cc(C(F)(F)F)c2)cn1 ... > 2 µM
C=C(c1ccc(C(=O)O)cc1)c1cc2c(cc1C)C(C)(C)CCC2(C)C ... > 8 µM
CC(C)c1ccccc1Cc1cc(C(=O)Nc2ccc(S(=O)(=O)c3ccccc3C(C)(C)C)cc2)c(O)c(O)c1O ... 0.702 µM
CN(C)C(=N)NC(=N)N ... > 20000 µM
Nc1cccc2c1CN(C1CCC(=O)NC1=O)C2=O (stereo unspecified) [LENALIDOMIDE] ... > 5 µM

# input for lookup
Please supply the value of reported IC50 for the item CC1(C)CNc2cc(NC(=O)c3cccnc3NCc3ccncc3)ccc21
> 2 µM

All values here come from ChEMBL document CHEMBL1201861.
